System: Transient receptor potential cation channel subfamily C member 4 (mouse)
Assay: TRPC4 modulation by TRPC6 hit compounds, confirmation, selectivity assay for TRPC6 modulator project, cell-based, HEK293 TRPC4/mu-opioid, membrane potential dye, mouse (AID 488927)
Settings: membrane potential fluorescence, at 10 µM
The other results are listed elsewhere or left out. Active and inactive are the calls of the source.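 How the source made its calls: active means membrane potential signal moved up or down beyond 5 SD of buffer control wells, in both duplicate plates, actives on both sides; inactive means the rest.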
// classify into active, inactive

Incoming: Assay result, entry COC(=O)c1ccccc1NC(=O)C1CCN(S(=O)(=O)c2cc(OC)ccc2OC)CC1 — outcome?
Outgoing: active

Incoming: Can you look up the reported call for O=C(CN1CCCCCC1)NCCN1C(=O)S/C(=C\c2ccccc2Cl)C1=O for me?
Outgoing: inactive

Incoming: Short answer needed: outcome of this test for Cc1c(CCOC(=O)CC23CC4CC(CC(C)(C4)C2)C3)sc[n+]1Cc1ccc([N+](=O)[O-])cc1 ?
Outgoing: active

Incoming: Dear all, I need the recorded test outcome for CN1CCN(c2ccc([N+](=O)[O-])c(Sc3nc4ccccc4[nH]3)c2)CC1 , thank you.
Outgoing: active

Incoming: Field: outcome | Entry: COC(=O)c1c(NC(=O)c2ccc(S(=O)(=O)N3CCOCC3)cc2)sc2c1CCN(C(C)C)C2
Outgoing: active

Incoming: Please indicate how the test categorized CC(C)(C)Nc1nc(-c2ccccn2)nc2ccccc12 .
Outgoing: active

Incoming: So what was the verdict on CCCCCCn1cc(C(=O)O)c(=O)c2cc(F)c(N3CCCCC3)cc21 in this test?
Outgoing: active

Incoming: Which result was noted for this compound in the test: CCc1ccc(-c2cc(C(=O)NN3CCN(C)CC3)c3ccccc3n2)cc1
Outgoing: inactive

Incoming: Please share the test call associated with COc1ccc(C(=O)C2CCCN(Cc3cccn3-c3ccccn3)C2)c(C)c1 (stereo not drawn) .
Outgoing: active

Incoming: Which outcome was assigned to O=C(Nc1cccc(Cl)c1)Nc1ccccc1NS(=O)(=O)c1cccs1 in this test?
Outgoing: active

Incoming: How did this test come out for O=C(CN1CCCCCC1)N1c2ccccc2Sc2ccc(C(F)(F)F)cc21 ?
Outgoing: active

Incoming: Returns: the outcome recorded for Cc1ccc(NC(=S)N(CCCN2CCCC2)Cc2cccn2Cc2ccc(Cl)cc2)cc1 in this assay.
Outgoing: inactive

Incoming: // outcome(item) with item = Nc1ccc(C(=O)N2CCN(S(=O)(=O)c3ccc(Cl)cc3)CC2)cc1[N+](=O)[O-]
Outgoing: inactive

---

Molecular target: Potassium voltage-gated channel subfamily KQT member 1 (Homo sapiens) (UniProt P51787)
Sequence (P51787 whole entry, looked up): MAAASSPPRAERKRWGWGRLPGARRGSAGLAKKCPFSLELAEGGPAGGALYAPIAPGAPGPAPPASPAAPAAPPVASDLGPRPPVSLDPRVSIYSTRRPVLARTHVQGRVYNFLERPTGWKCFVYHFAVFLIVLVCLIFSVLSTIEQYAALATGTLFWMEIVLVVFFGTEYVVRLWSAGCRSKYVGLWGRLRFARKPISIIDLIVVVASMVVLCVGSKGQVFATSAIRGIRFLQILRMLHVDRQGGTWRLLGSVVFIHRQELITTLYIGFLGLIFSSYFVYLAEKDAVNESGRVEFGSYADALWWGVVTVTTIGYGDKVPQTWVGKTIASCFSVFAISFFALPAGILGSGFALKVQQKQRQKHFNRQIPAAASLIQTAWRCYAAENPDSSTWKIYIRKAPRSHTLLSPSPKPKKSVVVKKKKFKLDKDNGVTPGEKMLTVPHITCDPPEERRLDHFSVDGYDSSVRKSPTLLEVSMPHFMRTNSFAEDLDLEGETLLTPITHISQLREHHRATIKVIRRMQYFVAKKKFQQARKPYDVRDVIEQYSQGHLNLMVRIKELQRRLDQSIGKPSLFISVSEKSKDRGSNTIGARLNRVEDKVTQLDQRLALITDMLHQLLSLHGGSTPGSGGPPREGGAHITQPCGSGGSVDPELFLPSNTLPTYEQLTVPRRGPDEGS
Assay: KCNQ1 potassium channel potentiators, confirmation, FluxOR thallium flux, CHO cells, duplicates (AID 493007);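 on outcome: cells depolarized by a potassium plus thallium sulfate stimulus after compound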
Settings: KCNQ1 cell line, FluxOR thallium flux fluorescence, at 10 µM, % of reference activator effect, buffer zero
Active and inactive are the calls of the source.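 The calls were made as follows: active = potentiation averaged over duplicate wells exceeding buffer-only control mean by more than 3 SD; inactive = the rest.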
Tick one outcome: active, inactive

Incoming: # outcome recorded in this test, key = COc1cccc(-c2cn(-c3cccc(C(F)(F)F)c3)c(=S)[nH]2)c1
Outgoing: inactive

Incoming: Short answer needed: outcome of this test for O=C(NC(=S)Nc1ccccc1N1CCCC1)c1ccc(-c2cccc([N+](=O)[O-])c2)o1 ?
Outgoing: inactive

Incoming: Each molecule tested received a call. Report the one for Cc1ccc2nc(SCC(=O)N3CCN(C(=O)c4ccco4)CC3)[nH]c2c1 .
Outgoing: inactive

Incoming: Short answer needed: outcome of this test for Nc1nc(N)c2sc3nc4c(cc3c2n1)CCC4 ?
Outgoing: inactive

Incoming: What did the test return for Cc1nc(=S)c2c([nH]1)-c1ccccc1CC21CCCCC1 ?
Outgoing: active

Incoming: Called result for NC(=O)CN1C(=O)NC2(CCOc3ccccc32)C1=O (stereo unspecified)
Outgoing: inactive

Incoming: Answer briefly: the call reported for CC(Sc1n[nH]c(N)n1)C(=O)NC1CCCCC1C (stereo unspecified) in this assay.
Outgoing: active

Incoming: Hi team, can someone confirm the assay call for CCOC(=O)C(C(=O)OCC)C(C(=O)OCC)N1CCOCC1 (stereo unspecified) ?
Outgoing: inactive

Incoming: Per the records of this test, what outcome belongs to CCOC(=O)CSc1nc(C2CC2)cc(-c2ccc(F)cc2)c1C#N ?
Outgoing: active

Incoming: Record request — test call for CC(Oc1ccc(Cl)cc1Cl)C(=O)NC(=S)N1CCc2ccccc21 (stereo unspecified)
Outgoing: active

Incoming: Record lookup: outcome of this test for CN(C)c1ccc(NC(=O)COC(=O)c2cc(Cl)ccc2[N+](=O)[O-])cc1 ?
Outgoing: inactive

---

Assay: thallium flux activation in parental CHO cells, counter-screen for KCNQ1 potentiator project (AID 493006);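 on activation: fluorescence ratio of max minus min over baseline after K+ and Tl+ depolarization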
Conditions: parental CHO-K1 cells, FluxOR thallium flux, at 10 µM; stronger effect = higher value
Calls of active or inactive are those of the source.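 How the source made its calls: active means duplicate-averaged activation above buffer control mean plus 5 SD of those controls; inactive means the rest.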
testReadout: activation

Recorded activation, per entry:
CCOC(=O)c1ccc(Nc2nc(N3CCOCC3)nc(N3CCOCC3)n2)cc1
inactive
Cc1nc(NCc2cccnc2)c2c3c(sc2n1)CC(C)CC3 (stereo unspecified)
299% (active)
O=C(COc1ccccc1)NC(=S)Nc1ccc(Br)cn1
inactive
S=c1nc2ccccc2c2nc(-c3ccccc3)[nH]n12
inactive

Incoming: Fill in: activation of Cc1[nH]n(-c2ccc(Cl)cc2)c(=O)c1/C=N/c1nnc(-c2ccccc2)s1 is ___
Outgoing: 678% (active)

Incoming: For the molecule COc1ccc(CC(=O)NC(=S)Nc2cccc(C)c2)cc1 , what activation is on record?
Outgoing: inactive

---

System: TRPC4 beta (transient receptor potential cation channel C4), mouse
Experiment: activators of mouse TRPC4 channel, confirmation, cell-based, Fluo4 calcium, HEK293 TRPC4beta/mu-opioid, duplicates, 10 µM (AID 2426)
Details: Fluo4 calcium fluorescence, at 10 µM
Activity calls are given as the source filed them.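 How the source made its calls: active means fluorescence ratio normalized to control raised more than 50% in primary screen plus both repeat runs; inactive means the rest.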
Give your call using only these classes: active, inactive

Incoming: Recorded call for O=C(NNC(=S)NC(=O)c1ccccc1Cl)c1cccc([N+](=O)[O-])c1 ?
Outgoing: active

Incoming: Per the assay record, what outcome was assigned to O=C(C[n+]1cc2ccccc2c2ccccc21)c1ccccc1 ?
Outgoing: active

Incoming: What call does the record list for O=C(NNC(=S)NC(=O)C12CC3CC(CC(C3)C1)C2)c1ccncc1 ?
Outgoing: active

Incoming: Short answer needed: outcome of this test for CCOC(=O)C1(CC2CC2)CCN(Cc2ccc(O)c(Cl)c2)CC1 ?
Outgoing: inactive

Incoming: Called result for COc1ccccc1C(=O)NNC(=S)NC(=O)c1sc2ccccc2c1Cl
Outgoing: inactive

Incoming: # fetch the recorded call for CCOC(=O)C1(CC2CC2)CCN(Cc2ccc3cccc(F)c3n2)CC1 here
Outgoing: active

Incoming: Any idea what this test logged for CCCCN(C)CCCNC(=O)CN1N=C(c2ccc(Cl)cc2)CCC1=O ?
Outgoing: inactive

Incoming: What call does the record list for CCCc1c(O)nc(SCCN(CCC)CCC)[nH]c1=O ?
Outgoing: active

Incoming: Call for entry Cc1ccc(/C=N\NC(=O)C2COc3cc4ccccc4cc3O2)o1 (stereo not drawn) :
Outgoing: active

Incoming: Assay outcome for NC(=O)C1CCCN(CC(O)COCc2ccc(Cl)cc2)C1 (stereo not drawn) : what was it?
Outgoing: active

Incoming: Please let me know the test result on file for Cc1cc(OCCCn2ccnc2)cc(C)c1Cl .
Outgoing: active

Incoming: # fetch the recorded call for Cc1cc(OCCCn2ccnc2)ccc1[N+](=O)[O-] here
Outgoing: active

Incoming: Tell me the assay call for CCc1ccc(C(CNc2nc(C(F)(F)F)nc3ccccc23)N(C)C)cc1 (stereo not drawn) please.
Outgoing: inactive

Incoming: # fetch the recorded call for CN(C)C(CNC(=O)CCc1c[nH]c2ccccc12)c1ccccc1 (stereo not drawn) here
Outgoing: active

Incoming: Test call for this compound, please: CCN(CCCNS(=O)(=O)c1cc(-c2cc(C)no2)ccc1C)Cc1ccccc1
Outgoing: active

Incoming: Please state the recorded outcome for this compound: Cc1ccc(S(=O)(=O)Nc2cccc(C(=O)NCC(c3ccco3)N3CCCC3)c2)cc1F (stereo not drawn)
Outgoing: active

Incoming: Please state the recorded outcome for this compound: CCn1cc(CN2CCC(n3nccc3NC(=O)CCCc3ccccc3)CC2)cn1
Outgoing: inactive

Incoming: Called result for O=C(NCc1cccnc1)C1CCCN(Cc2cnn(-c3ccccc3)c2-n2cccc2)C1 (stereo not drawn)
Outgoing: active

Incoming: What is the recorded call for this compound in the test? CN(C)CCCN(C(=O)c1ccc(S(=O)(=O)N2CCCCCC2)cc1)c1nc2ccc(F)cc2s1
Outgoing: active

Incoming: For this compound, state the assay outcome: O=C(NCCc1cccc(Cl)c1)c1ccc(OC2CCN(Cc3ccccn3)CC2)cc1
Outgoing: active

Incoming: Recorded test call requested for CC(C)c1ccc(NC(=S)N(C)CCc2ccccn2)cc1
Outgoing: inactive

Incoming: State the result this test recorded for CC1(C)CC(=O)c2cc(C(=O)NCc3ccco3)c(=O)n(-c3ccc(Cl)cc3)c2C1 .
Outgoing: inactive

Incoming: Kindly provide the recorded test outcome for the following compound: OCC1(CC2CCCCO2)CCN(Cc2nc3ccccc3[nH]2)CC1 (stereo not drawn)
Outgoing: inactive

Incoming: Query: recorded result category for CCOc1ccccc1CN1CCNC(=O)C1CC(=O)NCCc1ccccn1 (stereo not drawn) in this test
Outgoing: inactive

Incoming: How did this test come out for COc1cc(C(=O)NC(=S)NNC(=O)[C@H]2C[C@@H]2c2ccccc2)cc(OC)c1OC ?
Outgoing: active

Incoming: Entry CC1CCCN(CCCNC(=O)c2ccc3c(c2)N(Cc2ccccc2F)C(=O)c2ccccc2S3(=O)=O)C1 (stereo not drawn) : call = ?
Outgoing: active

Incoming: Record request — test call for Cc1ccccc1OCC(O)Cn1c(=N)n(Cc2ccccc2)c2ccccc21 (stereo not drawn)
Outgoing: active

Incoming: Hi, sorry to bother you, what did the test record for CCn1cc(CN2CCC(n3nccc3NC(=O)CCOc3ccccc3)CC2)cn1 ?
Outgoing: active

Incoming: How was CN(C)C(CNC(=S)Nc1ccc(F)cc1)c1cccnc1 (stereo not drawn) classified in this test?
Outgoing: active

Incoming: For CCN1CCN(c2ccc(S(=O)(=O)N3CCCCC3)cc2NC(=O)C(C)Oc2ccc(F)cc2)CC1 (stereo not drawn) , which call appears in the assay record?
Outgoing: active

Incoming: Test call for this compound, please: Cc1cccc2cc(C(c3nnnn3Cc3ccccc3)N3CCN(C)CC3)c(=O)[nH]c12 (stereo not drawn)
Outgoing: active

Incoming: Short answer needed: outcome of this test for Cc1nc(NCC(c2ccccc2)N(C)C)c2c(C)c(C)sc2n1 (stereo not drawn) ?
Outgoing: active

Incoming: I'd appreciate the recorded outcome for CCCCN(CC)CCNC(=O)c1cc2cc3ccc(Cl)cc3nc2o1 from this test.
Outgoing: active

Incoming: What classification did Cn1c(-c2cccc3ccccc23)n[nH]c1=S end up with in this test?
Outgoing: active

Incoming: // return assay outcome for CCCCCSc1nnc2c(n1)OC(c1cccn1C)N(C(C)=O)c1ccccc1-2 (stereo not drawn)
Outgoing: inactive

Incoming: What outcome does the record of this test show for COC(=O)C1=C(C)N(Cc2ccccc2)C(=NCCc2ccccn2)N[C@H]1c1cccc(F)c1 ?
Outgoing: active

Incoming: Can you look up the reported call for O=C1/C(=C\c2cc(Cl)c(O)c(Cl)c2)SC(=S)N1Cc1ccccc1 for me?
Outgoing: active

Incoming: // return assay outcome for Cc1cc(OCCCCn2ccnc2)cc(C)c1Cl
Outgoing: active

Incoming: Tell me the recorded outcome of this test for CC1CCCCN1S(=O)(=O)c1ccc(C(=O)N(CCCN(C)C)c2nc3ccc(Br)cc3s2)cc1 (stereo not drawn) .
Outgoing: inactive

Incoming: Could you please tell me the result logged for Cc1ccccc1C(=O)NNC(=S)NC(=O)c1ccc(Cl)cc1Cl in this assay?
Outgoing: active

Incoming: I'd appreciate the recorded outcome for Cc1c(CN2CCC(n3nccc3NC(=O)C3CC3)CC2)[nH]c2ccccc12 from this test.
Outgoing: active

Incoming: Returns: the outcome recorded for Cc1cc(NC(=O)c2cnn3cccnc23)nn1CC(=O)Nc1cccnc1 in this assay.
Outgoing: inactive

Incoming: Record lookup: outcome of this test for COC(=O)C1=NN(C(=O)c2ccc(C)cc2)C(O)(c2ccc(Cl)cc2)C1 (stereo not drawn) ?
Outgoing: active

Reference source for all entries: PubChem BioAssay
